B1: HDV Ribozyme (parent)
chain: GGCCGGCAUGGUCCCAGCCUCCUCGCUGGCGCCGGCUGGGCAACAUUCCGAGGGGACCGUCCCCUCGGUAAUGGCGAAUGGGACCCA

# Variants of: B1
# METHOD_NOTES: self-cleavage, relative activity (ratio to wild type); higher = more cleavage; co-transcriptional
Label 1 when self-cleavage is at or above 0.2; anything below gets -1.

Below, 6 variants whose answers are already recorded.
query_sequence="GGCCGGCAUGGUCCCAGCCUCCUCGCUGGCGCCGGCUGGGCAACAUUCCGAGGGGACCGUCCCCUCGGUAAAGGCGAAUGGGACCCU [U72A A87U]" class_assignment=1
query_sequence="GGCCGGCAUGGUCCCAGCCUCCUCGCUGGCGCCGGCUGGGCAACAUUCCGAGGGGACCGUCCCCUCGUUAAUGGCGAAUGGGACCAA [G68U C86A]" class_assignment=1
query_sequence="GACCGGCAUGGUCCCAGCCUCCUCGCUGGCGCCGGCUGGGCGACAUUCCGAGGGGACCGUCCCCUCGGUAAUGGCGAAUGGGACCCA [G2A A42G]" class_assignment=-1
query_sequence="GGCCGGCAUGGUCCCAGCCUCCUCGCUGGCGCCGGCUGGGCAACAUUCCGAGGGGACCGUCCCCUCGGUAAUGGCGGAUGUGACCCA [A77G G81U]" class_assignment=1
query_sequence="GGUCGGCAUGGUCCCAGCCUCCUCGCUGGCGCCUGCUGGGCAACAUUCCGAGGGGACCGUCCCCUCGGUAAUGGCGAAUGGGACCCA [C3U G34U]" class_assignment=-1
query_sequence="GCCCGGCAUGGUCCCAGCCUCCUCGCUGGCGCCGGCUGGGCAACAUUCCGAGGGGUCCGUCCCCUCGGUAAUGGCGAAUGGGACCCA [G2C A56U]" class_assignment=-1

Quick check, self-cleavage >= 0.2? GGCCGGCAUGGUGCCAGCCUCCUCGCUGGCGCCGGCUGGGCAACAUUCCGAGGGGACCGUCCCCUCGGUAAUGGUGAAUGGGACCCA [C13G C75U]
-1

Quick check, self-cleavage >= 0.2? GGCCGUCAUGGUCCCAGCCUCGUCGCUGGCGCCGGCUGGGCAACAUUCCGAGGGGACCGUCCCCUCGGUAAUGGCGAAUGGGACCCA [G6U C22G]
-1

Quick check, self-cleavage >= 0.2? AGCCGGCAUGGUCCCAGCCUCCUCGCUGGCGCCGGCUCGGCAACAUUCCGAGGGGACCGUCCCCUCGGUAAUGGCGAAUGGGACCCA [G1A G38C]
-1

Quick check, self-cleavage >= 0.2? GACCGGCAUGGUCCCAGCCUCCUCGCUGGCGCCGGCUGGGCAACAUUCCGAGGGGACCGUCCCCUCGAUAAUGGCGAAUGGGACCCA [G2A G68A]
-1

Quick check, self-cleavage >= 0.2? GGCCGGCAUGGUCCCAGCCUCCUCGCUGGUGCCGGCUGGGCAACAUUCCGAGGCGACCGUCCCCUCGGUAAUGGCGAAUGGGACCCA [C30U G54C]
1
